# TARGET OR SYSTEM: T1, recombinant human DLL4 (human, UniProt Q9NR61 25-522)
# T1 construct: also called rhDLL4; hDLL4
# T1 sequence (Q9NR61 25-522): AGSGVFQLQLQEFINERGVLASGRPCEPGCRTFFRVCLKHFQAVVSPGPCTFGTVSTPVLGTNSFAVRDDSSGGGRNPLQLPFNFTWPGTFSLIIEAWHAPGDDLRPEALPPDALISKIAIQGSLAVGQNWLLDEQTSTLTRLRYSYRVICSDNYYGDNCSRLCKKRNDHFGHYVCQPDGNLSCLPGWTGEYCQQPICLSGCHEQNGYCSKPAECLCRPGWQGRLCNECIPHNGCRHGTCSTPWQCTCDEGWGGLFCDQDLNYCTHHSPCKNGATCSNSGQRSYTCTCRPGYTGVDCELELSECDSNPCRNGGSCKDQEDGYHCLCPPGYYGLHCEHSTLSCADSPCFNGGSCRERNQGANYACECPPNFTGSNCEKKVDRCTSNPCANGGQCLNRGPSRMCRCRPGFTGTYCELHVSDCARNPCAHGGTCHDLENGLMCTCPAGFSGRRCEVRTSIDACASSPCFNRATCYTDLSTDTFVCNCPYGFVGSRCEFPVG
# EXPERIMENT DESCRIPTION: SPR Biacore T100, hDLL4 on chip, VHH/Fab injected
PARAMETER: log10 of Kd (log10 of the value in nM)

INSERT INTO measurements (binder, test_value) VALUES
  ('DLLBII56A09 (VHH, also called 56A9; DLLBII56A9) VHH: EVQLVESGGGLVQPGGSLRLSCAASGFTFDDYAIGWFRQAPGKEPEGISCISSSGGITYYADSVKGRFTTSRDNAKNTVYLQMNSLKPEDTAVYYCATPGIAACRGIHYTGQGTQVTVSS', 0.75),
  ('DLLBII115A05 (VHH, also called 115A5; DLLBII115A5) VHH: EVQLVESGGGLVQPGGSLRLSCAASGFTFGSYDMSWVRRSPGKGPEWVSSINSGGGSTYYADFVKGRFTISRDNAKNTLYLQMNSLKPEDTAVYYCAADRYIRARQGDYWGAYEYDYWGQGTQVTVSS', 1.40),
  ('DLLBII56H08 (VHH) VHH: EVQLVESGGGLVQPGGSLRLSCAASGFTFDDYAIGWFRQAPGKEPEEISCISSSGGITYYADSVKGRFTISRDNAKNTVYLQMNSLKPEDTAVYYCATPGIAACRGIHYTGQGTQVTVSS', 0.97),
  ('DLLBII62C11 (VHH) VHH: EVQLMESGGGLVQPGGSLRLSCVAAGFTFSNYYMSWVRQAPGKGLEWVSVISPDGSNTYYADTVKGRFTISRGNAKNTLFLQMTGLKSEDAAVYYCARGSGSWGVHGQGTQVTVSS', 2.08),
  ('DLLBII56C04 (VHH) VHH: EVQLVESGGGLVQPGGSLRLSCTASGFTFDVYAIGWFRQAPGKEPEGISCISSSGSITYYADSVKGRFTTSRDSAKNTVYLQMNSLKPEDTAVYYCATPGIAACRGIHYWGQGTQVTVSS', 1.65);
